Target: Sphingosine kinase 2 (Homo sapiens, UniProt Q9NRA0)
Sequence (Q9NRA0 whole entry): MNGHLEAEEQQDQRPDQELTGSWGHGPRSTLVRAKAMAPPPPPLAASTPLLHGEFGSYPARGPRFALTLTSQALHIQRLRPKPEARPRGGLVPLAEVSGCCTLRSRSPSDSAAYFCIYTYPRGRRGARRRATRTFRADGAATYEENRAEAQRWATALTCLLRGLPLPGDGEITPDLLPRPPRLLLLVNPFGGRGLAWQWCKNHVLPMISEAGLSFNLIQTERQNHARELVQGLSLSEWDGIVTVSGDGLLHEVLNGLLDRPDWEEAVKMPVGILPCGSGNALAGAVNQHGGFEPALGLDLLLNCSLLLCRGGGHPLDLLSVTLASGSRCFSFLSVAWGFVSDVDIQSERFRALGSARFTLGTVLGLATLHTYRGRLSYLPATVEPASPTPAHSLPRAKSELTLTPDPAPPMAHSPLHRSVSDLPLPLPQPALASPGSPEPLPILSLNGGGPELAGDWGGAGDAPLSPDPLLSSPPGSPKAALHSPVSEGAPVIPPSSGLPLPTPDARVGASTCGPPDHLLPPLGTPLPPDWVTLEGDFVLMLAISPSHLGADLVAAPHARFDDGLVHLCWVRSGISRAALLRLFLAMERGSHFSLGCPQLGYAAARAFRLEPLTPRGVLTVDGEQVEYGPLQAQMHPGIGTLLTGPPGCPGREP
Assay: Inhibition of SphK2 (unknown origin) assessed as inhibition constant
Measured pKi of individual entries
Quick note: pKi values are minus log10 of concentrations in mol/L.

>  <Molecule>
CCCCCCCCCCCCC/C=C/[C@H](O)[C@@H](CO)N(C)C

>  <Readout number>
4.92

$$$$

--- query ---
Q: Form: Entry = CCCCCCCCCCCCC/C=C/C(O)C(CO)NC(=N)N (configuration not stated) | System = Sphingosine kinase 2 (Homo sapiens, UniProt Q9NRA0) | pKi = ____
A: 6.52

----------
Target: Sphingosine kinase 1 (Homo sapiens)
Assay: Inhibition of recombinant SphK1 (unknown origin) using NBD-sphingosine as substrate in presence of ATP by fluorescence plate reader analysis
Property label: pIC50
Quick note: pIC50 values are minus log10 of concentrations in mol/L.

Q: Looking for the measured pIC50 of COc1ccc2[nH]c(=O)c(/C=C/C(=O)c3ccc(Nc4nccc(-c5ccc6ccccc6c5)n4)cc3)cc2c1 , can you help?
A: 5.51

----------
Biological target: Sphingosine kinase 1 (Mus musculus)
Sequence (Q8CI15 whole entry): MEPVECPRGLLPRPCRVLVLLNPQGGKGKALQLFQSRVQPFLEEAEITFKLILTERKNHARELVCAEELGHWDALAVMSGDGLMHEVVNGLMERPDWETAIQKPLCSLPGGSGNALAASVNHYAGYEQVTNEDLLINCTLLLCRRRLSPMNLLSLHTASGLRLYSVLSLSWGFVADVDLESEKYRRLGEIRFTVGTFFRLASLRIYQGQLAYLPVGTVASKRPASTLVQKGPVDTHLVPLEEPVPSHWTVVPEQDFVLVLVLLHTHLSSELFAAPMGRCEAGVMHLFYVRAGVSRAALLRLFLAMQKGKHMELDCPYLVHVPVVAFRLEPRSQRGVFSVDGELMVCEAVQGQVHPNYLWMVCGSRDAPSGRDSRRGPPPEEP
Assay: Inhibition of recombinant mouse SphK1 expressed in baculovirus infected Sf9 cells using D-erythro-sphingosine and [gamma-32P]ATP as substrate incubated for 30 mins by liquid scintillation counting analysis
Property label: Ki (µM)
All answers are understood in µM, so give the number only.

Q: Looking for the measured Ki of CCCCCCCCOc1ccc2cc(-c3noc(C4[C@@H](O)CCN4C(=N)N)n3)ccc2c1 (single isomer, unassigned) , can you help?
A: 20

----------
Biological target: Sphingosine kinase 2 (Homo sapiens, UniProt Q9NRA0)
Assay: Inhibition of recombinant GST-tagged SphK2 (unknown origin) (1 to 618 residues) expressed in baculovirus using sphingosine as substrate incubated for 1 hr in presence of ATP by electrophoretic mobility shift assay
Property label: IC50
Quick note: number first, unit second.

Q: Looking for the measured IC50 of CCCCCCCCCCCCCC[C@@H]1OC[C@@H](N)[C@@H]1O , can you help?
A: 1.6 µM

----------
Biological target: Sphingosine kinase 1 (Homo sapiens, UniProt Q9NYA1)
Sequence (Q9NYA1 whole entry): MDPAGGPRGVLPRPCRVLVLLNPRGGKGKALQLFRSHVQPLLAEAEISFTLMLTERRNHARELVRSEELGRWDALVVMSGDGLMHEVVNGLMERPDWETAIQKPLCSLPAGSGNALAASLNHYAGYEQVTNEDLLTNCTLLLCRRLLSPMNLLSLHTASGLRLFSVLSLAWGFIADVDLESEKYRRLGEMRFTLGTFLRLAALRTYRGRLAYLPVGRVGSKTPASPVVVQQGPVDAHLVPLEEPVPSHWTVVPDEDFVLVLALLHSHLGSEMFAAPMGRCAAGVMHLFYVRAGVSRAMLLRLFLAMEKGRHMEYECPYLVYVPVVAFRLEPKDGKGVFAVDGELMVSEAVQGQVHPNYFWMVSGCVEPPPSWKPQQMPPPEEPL
Test: Inhibition of SphK1 (unknown origin) using ATP as substrate preincubated for 40 mins followed by substrate addition and measured after 5 mins by spectrophotometric analysis
Measured IC50 of individual entries
All answers are understood in µM, so give the number only.

>  <Compound>
N[C@H]1CN[C@H](CCCCCCCCCCCOC2CCOCC2)[C@H]1O

>  <Tested system>
Sphingosine kinase 1 (Homo sapiens, UniProt Q9NYA1)

>  <Readout number>
0.8

$$$$

--- query ---
Q: Form: Entry = CCCCCCCCCCCCCC[C@H]1OC[C@H](N)[C@@H]1O [2-EPI JASPINE B] | System = Sphingosine kinase 1 (Homo sapiens, UniProt Q9NYA1) | IC50 = ____
A: 4.3
